- System: Karpas 1106p cells
- assayText: Cytotoxicity (LD50) against Karpas lymphoma cells
- Type: cell-based, human
- conditionInfo: Table 3
endpointName: LD50 (µM)
Numbers only; they are read as µM.

CC(C)(C)ONC(=O)C[C@H](NC(=O)CCc1ccccc1)C(=O)N[C@@H](Cc1ccc(F)cc1)C(=O)NCc1cccc2ccccc12    2.04

Next, consider the following compound.
Lookup result for COC[C@H](NC(=O)[C@H](CC(=O)NOC(C)(C)C)NS(=O)(=O)c1ccc(C)cc1)C(=O)NCc1cccc2ccccc12 ; measured LD50: 0.8

----------
- assaySystem: hu i-20S β5i-subunit (Homo sapiens, UniProt P20618+P28062)
- assayText: N,C-capped dipeptides IC50, Ac-ANW-AMC fluorescence assay
endpointName: IC50 (nM)
State the answer as a number, implicitly in nM.

Example cases with answers are listed next.
COC[C@H](NC(=O)[C@H](CC(=O)NOC(C)(C)C)NC(=O)CCc1ccccc1)C(=O)NCc1cccc2c1NCCC2    1150
CC(=O)N[C@@H](Cc1ccc(F)cc1)C(=O)NCc1cccc2ccccc12    57100
Cc1ccc(S(=O)(=O)N[C@@H](CC(=O)NOC(C)(C)C)C(=O)N[C@@H](C)C(=O)NCc2cccc3ccccc23)cc1    26

Next up:
Record COC[C@H](NC(=O)[C@H](CC(=O)NOC(C)(C)C)NC(=O)CCCc1ccccc1)C(=O)NCc1cccc2ccccc12 , field IC50: 6.5
